Here, each record is paired with measured AUC25 data.
- System: Mycobacterium tuberculosis Erdman (autoluminescent)
- Test: AUC25, normalised area under dose response up to IC25 (three-drug combination) (fraction (0-1)); higher = more potent at low dose
- Condition Summary: in vitro model: acidic pH 5.7; time point: constant (~7 days, model-specific)
// no unit, no text: just the number

Examples with their reported AUC25 follow.
Compound	Assay Readout	Measured
COc1nc2ccc(Br)cc2cc1[C@@H](c1ccccc1)[C@@](O)(CCN(C)C)c1cccc2ccccc12 [bedaquiline] + NC(=O)c1cnccn1 [pyrazinamide] + CO[C@H]1/C=C/O[C@@]2(C)Oc3c(C)c(O)c4c(O)c(c(/C=N/N5CCN(C6CCCC6)CC5)c(O)c4c3C2=O)NC(=O)/C(C)=C\C=C\[C@H](C)[C@H](O)[C@@H](C)[C@@H](O)[C@@H](C)[C@H](OC(C)=O)[C@@H]1C [rifapentine]	AUC25	0.105
CC(=O)NC[C@H]1CN(c2ccc(N3CCOCC3)c(F)c2)C(=O)O1 [linezolid] + O=[N+]([O-])c1cn2c(n1)OC[C@@H](OCc1ccc(OC(F)(F)F)cc1)C2 [pretomanid] + CO[C@H]1/C=C/O[C@@]2(C)Oc3c(C)c(O)c4c(O)c(c(/C=N/N5CCN(C6CCCC6)CC5)c(O)c4c3C2=O)NC(=O)/C(C)=C\C=C\[C@H](C)[C@H](O)[C@@H](C)[C@@H](O)[C@@H](C)[C@H](OC(C)=O)[C@@H]1C [rifapentine]	AUC25	0.0833
COc1nc2ccc(Br)cc2cc1[C@@H](c1ccccc1)[C@@](O)(CCN(C)C)c1cccc2ccccc12 [bedaquiline] + CC(=O)NC[C@H]1CN(c2ccc(N3CCOCC3)c(F)c2)C(=O)O1 [linezolid] + NC(=O)c1cnccn1 [pyrazinamide]	AUC25	0.076

Now let's try a different one.
Give a short answer stating reported AUC25 for COc1nc2ccc(Br)cc2cc1[C@@H](c1ccccc1)[C@@](O)(CCN(C)C)c1cccc2ccccc12 [bedaquiline] + NC(=O)c1cnccn1 [pyrazinamide] + CO[C@H]1/C=C/O[C@@]2(C)Oc3c(C)c(O)c4c(O)c(c(/C=N/N5CCN(C)CC5)c(O)c4c3C2=O)NC(=O)/C(C)=C\C=C\[C@H](C)[C@H](O)[C@@H](C)[C@@H](O)[C@@H](C)[C@H](OC(C)=O)[C@@H]1C [rifampicin] .
0.0834

---

- System: Mycobacterium tuberculosis Erdman (autoluminescent)
- Test: total FIC50 (Loewe) at 50% inhibition, three-drug combination (log2); higher = more antagonistic
- Condition Summary: in vitro model: valerate; time point: terminal (~4-5 doublings, model-specific)
Assay Readout: total FIC50
// no unit, no text: just the number

Examples with their reported total FIC50 follow.
Compound	Assay Readout	Measured
CC(C)/N=c1\cc2n(-c3ccc(Cl)cc3)c3ccccc3nc-2cc1Nc1ccc(Cl)cc1 [clofazimine] + O=[N+]([O-])c1cn2c(n1)OC[C@@H](OCc1ccc(OC(F)(F)F)cc1)C2 [pretomanid] + NC(=O)c1cnccn1 [pyrazinamide]	total FIC50	0.629
CC[C@@H](CO)NCCN[C@@H](CC)CO [ethambutol] + O=[N+]([O-])c1cn2c(n1)OC[C@@H](OCc1ccc(OC(F)(F)F)cc1)C2 [pretomanid] + CO[C@H]1/C=C/O[C@@]2(C)Oc3c(C)c(O)c4c(O)c(c(/C=N/N5CCN(C6CCCC6)CC5)c(O)c4c3C2=O)NC(=O)/C(C)=C\C=C\[C@H](C)[C@H](O)[C@@H](C)[C@@H](O)[C@@H](C)[C@H](OC(C)=O)[C@@H]1C [rifapentine]	total FIC50	0.593
COc1nc2ccc(Br)cc2cc1[C@@H](c1ccccc1)[C@@](O)(CCN(C)C)c1cccc2ccccc12 [bedaquiline] + O=[N+]([O-])c1cn2c(n1)OC[C@@H](OCc1ccc(OC(F)(F)F)cc1)C2 [pretomanid] + CO[C@H]1/C=C/O[C@@]2(C)Oc3c(C)c(O)c4c(O)c(c(/C=N/N5CCN(C6CCCC6)CC5)c(O)c4c3C2=O)NC(=O)/C(C)=C\C=C\[C@H](C)[C@H](O)[C@@H](C)[C@@H](O)[C@@H](C)[C@H](OC(C)=O)[C@@H]1C [rifapentine]	total FIC50	1.15
NNC(=O)c1ccncc1 [isoniazid] + CC(=O)NC[C@H]1CN(c2ccc(N3CCOCC3)c(F)c2)C(=O)O1 [linezolid] + CO[C@H]1/C=C/O[C@@]2(C)Oc3c(C)c(O)c4c(O)c(c(/C=N/N5CCN(C)CC5)c(O)c4c3C2=O)NC(=O)/C(C)=C\C=C\[C@H](C)[C@H](O)[C@@H](C)[C@@H](O)[C@@H](C)[C@H](OC(C)=O)[C@@H]1C [rifampicin]	total FIC50	0.502
CC[C@@H](CO)NCCN[C@@H](CC)CO [ethambutol] + NNC(=O)c1ccncc1 [isoniazid] + CO[C@H]1/C=C/O[C@@]2(C)Oc3c(C)c(O)c4c(O)c(c(/C=N/N5CCN(C6CCCC6)CC5)c(O)c4c3C2=O)NC(=O)/C(C)=C\C=C\[C@H](C)[C@H](O)[C@@H](C)[C@@H](O)[C@@H](C)[C@H](OC(C)=O)[C@@H]1C [rifapentine]	total FIC50	0.609
CC(C)/N=c1\cc2n(-c3ccc(Cl)cc3)c3ccccc3nc-2cc1Nc1ccc(Cl)cc1 [clofazimine] + NC(=O)c1cnccn1 [pyrazinamide] + CO[C@H]1/C=C/O[C@@]2(C)Oc3c(C)c(O)c4c(O)c(c(/C=N/N5CCN(C)CC5)c(O)c4c3C2=O)NC(=O)/C(C)=C\C=C\[C@H](C)[C@H](O)[C@@H](C)[C@@H](O)[C@@H](C)[C@H](OC(C)=O)[C@@H]1C [rifampicin]	total FIC50	0.53

State measured total FIC50 of the compound COc1nc2ccc(Br)cc2cc1[C@@H](c1ccccc1)[C@@](O)(CCN(C)C)c1cccc2ccccc12 [bedaquiline] + CC[C@@H](CO)NCCN[C@@H](CC)CO [ethambutol] + NC(=O)c1cnccn1 [pyrazinamide] with Mycobacterium tuberculosis Erdman (autoluminescent).
0.806
